- System Tested: human recombinant AChE (Homo sapiens, UniProt P22303)
- Sequence (P22303 32-614): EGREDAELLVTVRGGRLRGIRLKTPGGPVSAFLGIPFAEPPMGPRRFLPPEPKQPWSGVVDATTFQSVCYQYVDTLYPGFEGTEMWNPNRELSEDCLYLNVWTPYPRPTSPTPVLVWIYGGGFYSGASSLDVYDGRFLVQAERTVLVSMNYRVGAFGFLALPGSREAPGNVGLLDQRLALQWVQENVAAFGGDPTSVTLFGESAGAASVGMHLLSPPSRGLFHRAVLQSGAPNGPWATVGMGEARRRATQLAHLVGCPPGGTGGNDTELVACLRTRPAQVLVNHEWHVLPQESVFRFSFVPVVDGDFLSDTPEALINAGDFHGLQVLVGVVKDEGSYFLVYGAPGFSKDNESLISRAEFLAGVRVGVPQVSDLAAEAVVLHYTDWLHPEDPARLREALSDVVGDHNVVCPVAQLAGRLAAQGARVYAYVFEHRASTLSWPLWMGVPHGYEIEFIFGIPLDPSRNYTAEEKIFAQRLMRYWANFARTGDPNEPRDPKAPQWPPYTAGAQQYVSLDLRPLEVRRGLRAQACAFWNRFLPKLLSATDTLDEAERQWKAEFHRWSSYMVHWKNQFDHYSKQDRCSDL
- Assay Explanation: biochemical
Metric: pIC50
Numbers only, as −log10 of the molar value.

Task: human recombinant AChE (Homo sapiens, UniProt P22303) / pIC50 / `COc1ccccc1N1CCN(CCCCOc2ccc3c(C)cc(=O)oc3c2C(C)=O)CC1` : value?
Output: 5.82

###

- System Tested: hMAO-B (Homo sapiens, UniProt P27338)
- Construct: purchased Aldrich (Milan, Italy)
- Sequence (P27338 1-520): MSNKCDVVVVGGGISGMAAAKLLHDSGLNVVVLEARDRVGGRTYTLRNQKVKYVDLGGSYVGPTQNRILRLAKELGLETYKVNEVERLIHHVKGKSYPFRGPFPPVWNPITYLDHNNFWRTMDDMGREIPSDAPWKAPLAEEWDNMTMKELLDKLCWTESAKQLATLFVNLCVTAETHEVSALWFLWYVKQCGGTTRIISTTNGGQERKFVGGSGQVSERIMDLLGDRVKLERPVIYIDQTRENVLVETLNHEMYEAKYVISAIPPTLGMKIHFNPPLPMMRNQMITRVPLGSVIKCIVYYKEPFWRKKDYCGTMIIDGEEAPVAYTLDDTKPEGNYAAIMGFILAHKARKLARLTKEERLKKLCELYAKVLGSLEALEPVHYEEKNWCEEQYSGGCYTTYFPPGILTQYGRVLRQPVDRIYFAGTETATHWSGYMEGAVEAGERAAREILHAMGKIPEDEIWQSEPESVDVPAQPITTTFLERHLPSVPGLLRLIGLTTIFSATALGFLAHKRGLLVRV
- Assay Explanation: biochemical
- Experimental Context: read-out: hMAO-B % inhibition at 10 μM ± SD; 10 μM inhibitor, human recombinant MAO-B, n = 3
Use rule met when the recorded inhibition at 10 µM is no lower than 30%; use rule not met when it is lower.

Example entries begin here.
Smiles Str | Class Label
COc1ccccc1N1CCN(CCCOc2c(C(C)=O)c(C)cc3oc(=O)cc(C)c23)CC1 | rule met
COc1ccccc1N1CCN(CCCCOc2ccc3c(C)cc(=O)oc3c2C(C)=O)CC1 | rule not met
COc1ccccc1N1CCN(CCCCOc2c(C(C)=O)c(C)cc3oc(=O)cc(C)c23)CC1 | rule met
COc1ccccc1N1CCN(CCCCOc2cc(C)cc3oc(=O)cc(C)c23)CC1 | rule met
COc1cccc(N2CCN(CCCOc3c(C(C)=O)c(C)cc4oc(=O)cc(C)c34)CC2)c1 | rule met

# input for lookup
Task: In plain terms: is recorded inhibition at 10 µM at least 30% for `COc1cccc(N2CCN(CCCCOc3c(C(C)=O)c(C)cc4oc(=O)cc(C)c34)CC2)c1` ?
Output: rule not met
